Test system: NCI-H2228 cells (parental cells)
Protocol summary: Cell growth suppression test on NCI-H2228 parental cells
Assay type: cell-based, human
Experimental context: Table 3; nine screening hits
Assay metric: IC50 (nM)
// note: answer is a bare numeric in nM

Qu. Provide IC50 value for the following compound: `c1cc(Nc2cc(C3CC3)[nH]n2)nc(Nc2ccc3nc[nH]c3c2)n1`
Ans. 1700

###

Test system: NCI-H2228 cells (parental cells)
Protocol summary: Cell growth suppression test on NCI-H2228 parental cells
Assay type: cell-based
Experimental context: Homo sapiens; Table 4; NCI-H2228; read-out: IC50, Parental cells
Assay metric: IC50 (nM)
Please respond with the number in nM and leave the unit unwritten.

C[C@H]1Oc2cc(cnc2N)-c2c(nn(C)c2C#N)CN(C)C(=O)c2ccc(F)cc21 | 3.8
CCc1cc2c(cc1N1CCC(N3CCOCC3)CC1)C(C)(C)c1[nH]c3cc(C#N)ccc3c1C2=O.Cl | 220

Qu. Output measured IC50 for this item: `COc1cc([C@@H]2c3cc4c(cc3[C@H](O)[C@H]3COC(=O)[C@@H]23)OCO4)cc(OC)c1OC`
Ans. 152

###

System: DTP cells
Protocol summary: Cell growth suppression test on DTP cells
Format: cell-based, human
Experimental context: Homo sapiens; Table 3; nine screening hits
Assay metric: pIC50
Just so you know, pIC50 here is -log10 of the concentration in molar units; reply with that number alone.

CN(C)C/C=C/C(=O)Nc1cc2c(Nc3ccc(F)c(Cl)c3)ncnc2cc1O[C@H]1CCOC1 | 5.30
C=CC(=O)N1CCC(Oc2cc3c(Nc4ccc(Cl)c(Cl)c4F)ncnc3cc2OC)CC1 | 5.86
C[C@]12CCC(=O)C=C1CC[C@@H]1[C@@H]2[C@@H](O)C[C@@]2(C)[C@H]1CC[C@]2(O)C(=O)CO [Hydrocortisone] | 5.67

Continue with the molecule presented below.
Qu. Param request: pIC50 | system DTP cells | item `Cc1cc([C@@H](C)Nc2ccccc2C(=O)O)c2nc(N3CCOCC3)cc(=O)n2c1`
Ans. 5.34

###

System: NCI-H2228 cells (parental cells)
Protocol summary: Cell growth suppression test on NCI-H2228 parental cells
Format: cell-based, human
Experimental context: Homo sapiens, NCI-H2228; Table 3; nine screening hits
Assay metric: pIC50
Recall that pIC50 is obtained by taking minus log10 of the concentration measured in molar.

Reference set (3 entries):
CN(C)C/C=C/C(=O)Nc1cc2c(Nc3ccc(F)c(Cl)c3)ncnc2cc1O[C@H]1CCOC1 | 5.19
Cc1cc([C@@H](C)Nc2ccccc2C(=O)O)c2nc(N3CCOCC3)cc(=O)n2c1 | 5.01
C=CC(=O)N1CCC(Oc2cc3c(Nc4ccc(Cl)c(Cl)c4F)ncnc3cc2OC)CC1 | 5.41

Switching to the query record.
Qu. // fetch pIC50 given entry `CN(C)C/C=C/C(=O)Nc1ccc(C(=O)N2CCC[C@@H](Nc3ncc(Cl)c(-c4c[nH]c5ccccc45)n3)C2)cc1`
Ans. 6.57

###

Tested on: DTP cells
Protocol summary: Cell growth suppression test on DTP cells
Type: cell-based, human
Experimental context: Table 3
Quick list: IC50 Ratio of parental to DTP cells per entry.
I'd appreciate a reply containing only the number, no unit.

Record excerpt, results attached:
Cc1cc([C@@H](C)Nc2ccccc2C(=O)O)c2nc(N3CCOCC3)cc(=O)n2c1 [AZD6482] | 2.2
C=CC(=O)N1CCC(Oc2cc3c(Nc4ccc(Cl)c(Cl)c4F)ncnc3cc2OC)CC1 [Poziotinib] | 2.8
CN(C)C/C=C/C(=O)Nc1ccc(C(=O)N2CCC[C@@H](Nc3ncc(Cl)c(-c4c[nH]c5ccccc45)n3)C2)cc1 [THZ531] | 1.8

Qu. Provide measured IC50 Ratio of parental to DTP cells value, entry: c1cc(Nc2cc(C3CC3)[nH]n2)nc(Nc2ccc3nc[nH]c3c2)n1 [APY29]
Ans. 3.8

Qu. Given the molecule CN(C)C/C=C/C(=O)Nc1cc2c(Nc3ccc(F)c(Cl)c3)ncnc2cc1O[C@H]1CCOC1 [Afatinib] , write its reported IC50 Ratio of parental to DTP cells.
Ans. 1.3
